Target: APC11/APC2 (Homo sapiens, UniProt Q9NYG5+Q9UJX6)
Sequence (Q9NYG5 whole entry): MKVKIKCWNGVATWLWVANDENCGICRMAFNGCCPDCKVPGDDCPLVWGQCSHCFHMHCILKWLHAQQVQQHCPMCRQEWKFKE
Sequence (Q9UJX6 whole entry): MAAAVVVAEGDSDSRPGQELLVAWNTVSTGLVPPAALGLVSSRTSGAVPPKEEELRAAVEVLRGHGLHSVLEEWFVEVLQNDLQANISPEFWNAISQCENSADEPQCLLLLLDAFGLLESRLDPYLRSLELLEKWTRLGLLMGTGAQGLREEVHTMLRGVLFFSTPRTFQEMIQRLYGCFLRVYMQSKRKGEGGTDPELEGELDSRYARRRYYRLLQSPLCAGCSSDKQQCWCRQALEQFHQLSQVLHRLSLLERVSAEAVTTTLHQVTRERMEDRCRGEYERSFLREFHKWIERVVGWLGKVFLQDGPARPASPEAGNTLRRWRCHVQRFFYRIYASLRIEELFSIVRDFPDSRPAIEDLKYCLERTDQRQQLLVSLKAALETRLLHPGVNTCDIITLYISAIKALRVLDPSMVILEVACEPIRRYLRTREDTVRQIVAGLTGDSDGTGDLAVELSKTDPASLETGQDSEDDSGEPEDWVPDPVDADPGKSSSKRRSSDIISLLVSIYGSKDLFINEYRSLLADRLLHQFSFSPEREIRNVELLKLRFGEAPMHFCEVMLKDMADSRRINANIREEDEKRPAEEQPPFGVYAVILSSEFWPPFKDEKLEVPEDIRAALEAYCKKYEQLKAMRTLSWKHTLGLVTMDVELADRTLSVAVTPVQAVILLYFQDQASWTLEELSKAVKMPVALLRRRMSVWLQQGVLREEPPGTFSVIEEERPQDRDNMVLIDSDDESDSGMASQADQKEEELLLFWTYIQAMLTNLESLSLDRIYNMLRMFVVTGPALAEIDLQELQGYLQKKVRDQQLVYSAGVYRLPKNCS
Assay: APC-11/APC-2 ligase assay (APC auto ubiquitination)
Conditions: APC assay
pIC50: −log10 of the molar value.
Measured pIC50 values are reported for all entries that follow.

Recorded results for 5 compounds are shown here.
COMPOUND | EXPERIMENTAL_TARGET | pIC50
Cc1cc(F)ccc1NS(=O)(=O)c1ccc(Cl)c2nonc12 | APC11/APC2 (Homo sapiens, UniProt Q9NYG5+Q9UJX6) | ≤ 4.70
O=[N+]([O-])c1c(N2CCCCC2)cc(-c2cccc(C(F)(F)F)c2)c2nonc12 | APC11/APC2 (Homo sapiens, UniProt Q9NYG5+Q9UJX6) | ≤ 4.70
O=C1OC2(CCN(S(=O)(=O)c3c(Cl)ccc4nonc34)CC2)c2ccccc21 | APC11/APC2 (Homo sapiens, UniProt Q9NYG5+Q9UJX6) | ≤ 4.70
CC(=O)Nc1ccc(-c2cc(C)cc(C)c2)c2nonc12 | APC11/APC2 (Homo sapiens, UniProt Q9NYG5+Q9UJX6) | ≤ 4.70
CC1CC(C)CN(c2ccc(S(=O)(=O)N3CC(C)CC(C)C3)c3nonc23)C1 (centres unmarked) | APC11/APC2 (Homo sapiens, UniProt Q9NYG5+Q9UJX6) | 4.70 to 6.00

Recorded pIC50 of `O=S(=O)(c1c(N2CCN(c3ccc(Cl)c(C(F)(F)F)c3)CC2)ccc2nonc12)N1CCN(c2ccc(Cl)c(C(F)(F)F)c2)CC1` , please.
4.70 to 6.00

Recorded pIC50 of `O=[N+]([O-])c1ccc(Sc2cccc3cccnc23)c2nonc12` , please.
4.70 to 6.00

Recorded pIC50 of `Cc1ccc(C)c(-c2cc([N+](=O)[O-])cc3nonc23)c1` , please.
≤ 4.70
